- system.tested: Luciferin 4-monooxygenase (Photinus pyralis)
- experiment.description: firefly luciferase enzyme inhibitors, primary screen, artefact control for luciferase-based inhibitor screens, biochemical, luminescence, ATPLite (AID 1006)
- test.context: 10 min, at 10 µM
Screen size: about 200,000 compounds; about 3,000 (1.5%) were called active.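 The calls were made as follows: active = inhibition above about 50% when tested at 10 µM (limit read from the data); inactive = the rest.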 The sample holds actives, similar compounds and a random draw of the others, so the mix is not that of the screen.
Please reply with one of these outcomes: 1 = active, 0 = inactive

Hi, sorry to bother you, what did the test record for NC(=O)Nc1ccccc1C(=O)NCCc1ccccc1 ? 0

Hi, sorry to bother you, what did the test record for CN1CCN(c2ccc(NC(=O)c3ccc4c(c3)OCCO4)cc2Cl)CC1 ? 1

Hi, sorry to bother you, what did the test record for O=C(Nc1cccc(S(=O)(=O)Nc2ccc(Cl)cc2)c1)c1ccc2c(c1)OCCO2 ? 0

Hi, sorry to bother you, what did the test record for CCC(C)(C)C1CCC(=NNC(=O)c2ccc(Br)o2)CC1 (configuration not stated) ? 0

Hi, sorry to bother you, what did the test record for CC1CC(C)CN(S(=O)(=O)c2ccc(C(=O)NN3CCOCC3)cc2)C1 (configuration not stated) ? 0

Hi, sorry to bother you, what did the test record for C=C(C)c1cccc(C(C)(C)NC(=O)NC2CCCC2)c1 ? 0

Hi, sorry to bother you, what did the test record for CCOC(=O)N1CCN(CC(=O)Nc2ccc(F)cc2)CC1 ? 0

Hi, sorry to bother you, what did the test record for O=c1c2c(nc3n1CCCCC3)sc1c(O)cccc12 ? 1

Hi, sorry to bother you, what did the test record for CCO[C@H]1OC(C(=O)Nc2ccccc2)=C[C@@H](C2CC2)[C@@H]1CCCO ? 0

Hi, sorry to bother you, what did the test record for CCOc1ccc(S(=O)(=O)N/N=C(\C)c2ccc(Cl)c(Cl)c2Cl)cc1 ? 0

Hi, sorry to bother you, what did the test record for Fc1cccc(Cc2noc(CN3CCN(c4cnccn4)CC3)n2)c1 ? 0

Hi, sorry to bother you, what did the test record for O=c1[nH]c(CN2CCOCC2)nc2cc(Cl)ccc12 ? 0

Hi, sorry to bother you, what did the test record for CCN1C(=O)/C(=C2\SC(N3CCCCC3)=NC2=O)c2ccccc21 ? 1

Hi, sorry to bother you, what did the test record for COc1cccc2sc(NNC(=O)c3nc4ccccc4s3)nc12 ? 0

Hi, sorry to bother you, what did the test record for Cc1ccc(C)c(CSc2nc(-c3ccco3)nc3c2c(=O)n(C)c(=O)n3C)c1 ? 0

Hi, sorry to bother you, what did the test record for COc1cc2c(C(=O)N3CCN(C)CC3)c(CSc3ccccc3)n(C)c2cc1Br ? 0

Hi, sorry to bother you, what did the test record for O=C(COC(=O)C1CCCCC1)Nc1ccc([N+](=O)[O-])cc1 ? 0

Hi, sorry to bother you, what did the test record for Cc1cc(C)nc(NC(=O)c2cccc([N+](=O)[O-])c2)c1 ? 0

Hi, sorry to bother you, what did the test record for Cc1ccc(-c2cc(N)on2)cc1 ? 0

Hi, sorry to bother you, what did the test record for CSc1ccccc1NC(=O)CN(C)CC(=O)Nc1ccc(Cl)cc1[N+](=O)[O-] ? 0

Hi, sorry to bother you, what did the test record for Cc1ccc2cc(CN(c3ccc(C)c(C)c3)S(C)(=O)=O)c(=O)[nH]c2c1 ? 0

Hi, sorry to bother you, what did the test record for COc1cccc(CC2(CO)CCCN(Cc3nc(-c4cccs4)oc3C)C2)c1 (configuration not stated) ? 0

Hi, sorry to bother you, what did the test record for O=C1CC(c2c(F)cccc2Cl)C(n2cncn2)C(O)=C1C1NCCc2ccccc21 (configuration not stated) ? 0

Hi, sorry to bother you, what did the test record for O=C(Nc1cccc(Cl)c1N1CCOCC1)c1ccc2c(c1)OCCO2 ? 0

Hi, sorry to bother you, what did the test record for O=C(COC(=O)C12CC3CC(CC(O)(C3)C1)C2)NC12CC3CC(CC(C3)C1)C2 ? 0

Hi, sorry to bother you, what did the test record for O=c1oc(-c2ccco2)nc2sc3c(c12)CCCCC3 ? 1

Hi, sorry to bother you, what did the test record for NC(=O)Cc1nc2scc(-c3ccc(Cl)cc3)c2c(=O)[nH]1 ? 0

###

- system.tested: Luciferin 4-monooxygenase (Photinus pyralis)
- experiment.description: firefly luciferase enzyme inhibitors, primary screen, artefact control for luciferase-based inhibitor screens, biochemical, luminescence, ATPLite (AID 1006)
- test.context: 10 min, at 10 µM
About 3,000 (1.5%) of roughly 200,000 compounds were called active.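 The calls were made as follows: active = inhibition above about 50% when tested at 10 µM (limit read from the data); inactive = the rest.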 Only a selection was taken, and actives are over-represented in it overall.
Please reply with one of these outcomes: active, inactive

Hi, sorry to bother you, what did the test record for CC(C)(c1ccccc1)c1ccc(OCCN)cc1 ? inactive

Hi, sorry to bother you, what did the test record for C=CCNc1scc(-c2ccccc2)[n+]1CC=C ? inactive

Hi, sorry to bother you, what did the test record for COc1ccc(OC)c(N=Cc2c(O)[nH]c3ccccc23)c1 ? inactive

Hi, sorry to bother you, what did the test record for Cc1nnc(SCC(=O)NNC(=O)c2ccc(Cl)cc2)n1CC1CCCO1 (stereo not given) ? inactive

Hi, sorry to bother you, what did the test record for COc1ccc(N=Cc2c(O)[nH]c3ccccc23)cc1OC ? inactive

Hi, sorry to bother you, what did the test record for CC1CN/C(=C\C(=O)c2ccc(Br)cc2)C(=O)N1 (stereo not given) ? active

Hi, sorry to bother you, what did the test record for CCOc1ccc(-c2ccc(SCC(=O)N3CCOCC3)nn2)cc1 ? active

Hi, sorry to bother you, what did the test record for COc1ccc(C(=O)NNC(=O)c2cc(C)[nH]n2)cc1 ? inactive

Hi, sorry to bother you, what did the test record for CCNC(=O)CCc1nc(-c2ccc(C(C)(C)C)cc2)no1 ? active

Hi, sorry to bother you, what did the test record for N=c1c2c(-c3ccccc3)c(-c3ccccc3)n(Cc3ccccc3)c2ncn1CCCO ? inactive

###

- system.tested: Luciferin 4-monooxygenase (Photinus pyralis)
- experiment.description: firefly luciferase enzyme inhibitors, primary screen, artefact control for luciferase-based inhibitor screens, biochemical, luminescence, ATPLite (AID 1006)
- test.context: 10 min, at 10 µM, hits give high values
Screen size: about 200,000 compounds; about 3,000 (1.5%) were called active. The full list was thinned out, with actives kept by preference.
I'd appreciate it if you could supply inhibition values for the items below.

Let me check: Fc1ccccc1Cc1ccc(Cl)nn1 , system Luciferin 4-monooxygenase (Photinus pyralis), measured inhibition is -5.5% (inactive)

Let me check: Cc1ccn(-c2cccc(-n3ccc(C)n3)n2)n1 , system Luciferin 4-monooxygenase (Photinus pyralis), measured inhibition is 61.1% (active)

Let me check: CCOc1ccc(C(=O)Nc2ccncc2)cc1 , system Luciferin 4-monooxygenase (Photinus pyralis), measured inhibition is 11.8% (inactive)
